Reference for the values: patent US20250034173A1

Target: UniProtKB P01116
Sequence (P01116 other isoform, or with tags, fused parts or gaps): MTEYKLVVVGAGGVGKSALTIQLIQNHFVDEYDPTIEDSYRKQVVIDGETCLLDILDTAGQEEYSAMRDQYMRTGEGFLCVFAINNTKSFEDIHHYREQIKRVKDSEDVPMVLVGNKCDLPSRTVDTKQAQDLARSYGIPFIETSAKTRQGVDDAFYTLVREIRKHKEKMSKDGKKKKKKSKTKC
Assay: SPR binding affinity and kinetics, GTPγS-loaded KRAS Wild Type
Conditions: GTPγS loaded protein, geomean
Parameter pKd: see the listing below.
A value of pKd is the negative decimal logarithm of a concentration given in moles per litre.

Would you please look over these solved cases?
C=C1CN2CCC[C@@]2(COc2nc3c4c(nc(-c5c(C)c(Cl)cc6[nH]ncc56)c(F)c4n2)OC[C@@H]2COCCCN32)C1
7.47
Fc1c(-c2c(C3CC3)c(Cl)cc3[nH]ncc23)nc2c3c(nc(OC[C@@]45CCCN4CC(=C4CCOCC4)C5)nc13)N1CCCOC[C@H]1CO2
7.17

Moving on to another molecule below.
Query C=C1CN2CC(F)C[C@@]2(COc2nc3c4c(nc(-c5c(C6CC6)c(Cl)cc6[nH]ncc56)c(F)c4n2)OC[C@@H]2COCCCN32)C1 (stereo partly drawn) yields pKd of 8.10
